tested on: Rattus norvegicus; test: Antiarthritic activity in complete Freund's adjuvant-induced rat arthritis model assessed as reduction of paw volume in non-injected paw at 50 mg/kg, sc qd for 28 days; format: functional; conditions: 672 h, route subcutaneous
Use t when the recorded inhibition in vivo at 50 mg/kg is no lower than 60%; use f when it is lower.

Example entries begin here.
compound: CCOP(=O)(OCC)C1(P(=O)(OCC)OCC)C(=S)c2ccccc2N1C
experimental_target: Rattus norvegicus
class_label: t
--
compound: O=P(O)(O)C1(P(=O)(O)O)C(=S)c2ccccc2N=C1C1CCCCC1
experimental_target: Rattus norvegicus
class_label: f
--
compound: CCOP(=O)(OCC)C1(P(=O)(OCC)OCC)C(=S)c2ccccc2N=C1C
experimental_target: Rattus norvegicus
class_label: t
--
compound: CCOP(=O)(OCC)C1=C(S)c2ccccc2N(C)P1(=O)OCC (configuration not stated)
experimental_target: Rattus norvegicus
class_label: t
--
compound: CCOP(=O)(OCC)C1(P(=O)(OCC)OCC)Nc2ccccc2C1=S
experimental_target: Rattus norvegicus
class_label: t

Confirm if inhibition in vivo at 50 mg/kg reported for the compound O=P(O)(O)C(Cl)(Cl)P(=O)(O)O [CLODRONIC ACID] is 60% or above.
t

# bool: inhibition in vivo at 50 mg/kg of "CCOP(=O)(OCC)C1(P(=O)(OCC)OCC)N=C(c2ccc(N(CC)CC)cc2)c2ccccc2C1=S" >= 60%
t

* * *

test system: Mus musculus; experiment: Antiinflammatory activity in methylated bovine serum albumin sensitized delayed-type hypersensitivity granuloma mouse model assessed as reduction of granuloma wet weight at 25 mg/kg, sc qd for 9 days; format: functional; details: 216 h, route subcutaneous
Kind request: treat 30% as inclusive, so inhibition in vivo at 25 mg/kg at 30% or higher is true, anything lower is false.

See these solved cases before continuing.
molecule: CCOP1(=O)Nc2ccccc2C(S)=C1P(=O)(OCC)OCC (stereo not drawn)
class_label: true
//
molecule: CCOP(=O)(OCC)C1(P(=O)(OCC)OCC)C(=S)c2ccccc2N1C
class_label: true
//
molecule: CCOP(=O)(OCC)C1(P(=O)(OCC)OCC)Nc2ccccc2C1=S
class_label: false

Please indicate if the recorded inhibition in vivo at 25 mg/kg for "CCOP(=O)(OCC)C1(P(=O)(OCC)OCC)C(=S)c2ccccc2N=C1C" meets or exceeds 30%.
false

Does inhibition in vivo at 25 mg/kg meet or surpass 30% for CCOP(=O)(OCC)C1=C(S)c2ccccc2N(C)P1(=O)OCC (stereo not drawn) ?
true

API: above_or_equal(metric=inhibition in vivo at 25 mg/kg, cutoff=30%) for item "CCOP(=O)(OCC)C1(P(=O)(OCC)OCC)N=C(c2ccc(N(CC)CC)cc2)c2ccccc2C1=S"
false

Evaluate "CCOP(=O)(OCC)C1(P(=O)(OCC)OCC)C(=S)c2ccccc2N=C1c1ccccc1" : inhibition in vivo at 25 mg/kg at minimum 30%?
false

* * *

Would you mind telling me the reported pIC50 of each entry?
test system: MCF7; assay: Cytotoxicity against human MCF7 cells after 48 hrs by SRB assay; assay type: functional, cell-based; conditions: MCF7, 48 h
Numbers only, as −log10 of the molar value.

The examples below pair each entry with its known result.
structure_notation: CCOP(=O)(OCC)C1(P(=O)(OCC)OCC)N=C(c2ccc(C)cc2)c2ccccc2C1=S
assay_result: 4.52

structure_notation: CCOP(=O)(OCC)C1(P(=O)(OCC)OCC)C(=S)c2ccccc2N=C1c1ccccc1
assay_result: 4.81

Proceeding to the next compound to report its pIC50.
The measured pIC50 associated with "CCOP(=O)(OCC)C1(P(=O)(OCC)OCC)C(=S)c2ccccc2N1C" reads 4.78
